- assay name: Activation of Myosin S1 ATPase activity in bovine Cardio-myofibril
measured attribute: pIC50
pIC50 here: minus log base 10 of the concentration, concentration in moles per litre.

Summary for this compound, "CC(C)n1c(=O)cc(N[C@@H](C)c2ccccc2)[nH]c1=O" : pIC50 is 6.52

====

- assay name: Plasma protein binding in cynomolgus monkey
measured attribute: fraction unbound
The answer should be written as a number, with no unit following it.

Summary for this compound, "CCCCC(=O)N(Cc1ccc(-c2ccccc2-c2nnn[nH]2)cc1)[C@H](C(=O)O)C(C)C.CCOC(=O)[C@H](C)C[C@@H](Cc1ccc(-c2ccccc2)cc1)NC(=O)CCC(=O)O" : fraction unbound is 0.06
